Test system: MDA-MB-468 breast
Assay: NCI-60 one-dose screen, 48 h (100 = growth as untreated, 0 = no growth, -100 = all killed)
Details: 10 µM unless noted
The panel holds about 83,000 compounds, 20% with a hit somewhere; the sample as a whole holds those more often.
Property: growth; scope: individual molecules
Expressed in %, but write only the number.

# molecule, reported.endpoint, meas.value
rows = [
    ("COc1cc(-c2nn(-c3cccc(NC(=O)CN4CCOCC4)c3)cc2-c2cccnc2)ccc1Cl", "growth", 74.9),
]

Which growth reading was recorded for the molecule COC(=O)C1=Nc2ccc(F)cc2/C1=C\c1sc(Nc2ccc(O)cc2)nc1O ?
56.1

Okay, and c1cnc2[nH]cc(-c3nc(-c4ccsc4)cs3)c2c1 ?
74.6

###

Tested on: UACC-257 melanoma
Test: NCI-60 one-dose screen, 48 h (100 = growth as untreated, 0 = no growth, -100 = all killed)
Settings: 10 µM
This is part of a sample that, as a whole, favours compounds with a hit. Of some 83,000 tested, about 20% had one in any assay.
Property: growth; scope: individual molecules
Expressed in %, but write only the number.

Here is how some molecules turned out for growth.
# cpd.smiles, assayed.target, unit, meas.value
measured = [
    ("COc1ccc(C(=O)COc2ccc(NC(=O)Nc3ccccc3)cc2)cc1", "UACC-257 melanoma", "%", 93.8),
    ("COC(=O)CNC(=O)COc1c(OC)c(OC)cc2oc(-c3cccc(C(=O)Nc4ccc(Cl)cc4)c3)cc(=O)c12", "UACC-257 melanoma", "%", 58.7),
    ("O=C(Nc1ccc(OCc2ccc(Cl)cc2)cc1)Nc1ccc(Cl)c(C(F)(F)F)c1", "UACC-257 melanoma", "%", -6.05),
    ("O=C(c1ccccc1)c1ccc2nc(-c3ccccc3Br)[nH]c2c1", "UACC-257 melanoma", "%", -59.1),
]

# evaluate next
Which growth reading was recorded for the molecule COc1cccc(C(=O)CSc2nc(-c3ccc(OCc4ccccc4)c(OC)c3)c(C#N)c(=O)[nH]2)c1 ?
94

###

System: SW-620 colon
Assay: NCI-60 one-dose screen, 48 h (100 = growth as untreated, 0 = no growth, -100 = all killed)
Conditions: 10 µM
This is part of a sample that, as a whole, favours compounds with a hit. Of some 83,000 tested, about 20% had one in any assay.
reported.endpoint: growth (%)
Expressed in %, but write only the number.

# compound, assayed.target, growth / %
data = [
    ("CCOC(=O)c1ccc(NC(=O)CSC(CC(=O)c2sc(Nc3ccccn3)nc2C)c2ccccc2F)cc1 (configuration not stated)", "SW-620 colon", 0.242),
]

Which growth reading was recorded for the compound COc1cc(C2CC(c3ccccc3)=Nc3c(N)nc(N)nc3N2)ccc1Oc1nc(NCCO)nc(N2CCOCC2)n1 (configuration not stated) ?
107

Okay, and CC1(C)CC(=O)C2=C(C1)N(Cc1ccc(C(=O)O)cc1)C1=C(C(=O)CC(C)(C)C1)C2c1ccc(Cl)cc1 ?
101

###

Test system: NCI-H522 lung
Experiment: NCI-60 one-dose screen, 48 h
Settings: 10 µM
Method: Growth inhibition of the NCI-H522 human Non-Small Cell Lung tumor cell line is measured as a screen for anti-cancer activity. Cells are grown in 96 well plates and exposed to the test compound for 48 hours. Compounds are tested at a single concentration, which is 10^-5 M for most compounds. The reported endpoint is percent growth (GI% or GIPRCNT), where numbers from 0 - 100% represent growth inhibition, and numbers from -100% - 0 represent cell death. […]
About 83,000 compounds went through this panel and 20% of them were active in at least one assay; those are over-represented in the sample as a whole. Active and inactive are the calls of the source. Rule for the calls: active = growth percent below 10; inactive = the rest.
The categories you may choose from are 1 (yes) for active, 0 (no) for inactive

Test call for this compound, please: Fc1ccc(/C=C/c2nc3ccccc3n3c(-c4ccc(Cl)cc4)nnc23)cc1
1 (yes)

Okay, and Cc1ccc(-c2nc(C#N)c(S(=O)(=O)N3CCN(S(C)(=O)=O)CC3)o2)cc1 ?
1 (yes)

Okay, and Nc1nnc(-c2c[nH]c3ncc(Br)cc23)c(-c2c[nH]c3ccc(Br)cc23)n1 ?
0 (no)

Okay, and O=C(c1ccc(Cl)cc1)C(c1c[nH]c2ccccc12)c1c[nH]c2ccccc12 ?
1 (yes)

Okay, and O=C(CC(=O)Nc1ccc(Oc2ncnc3scc(Nc4n[nH]c(=S)s4)c23)cc1)Nc1ccc(Cl)cc1 ?
0 (no)

###

System: MDA-MB-468 breast
Test: NCI-60 one-dose screen, 48 h
Conditions: 10 µM unless noted
This is part of a sample that, as a whole, favours compounds with a hit. Of some 83,000 tested, about 20% had one in any assay. Activity calls are given as the source filed them. The calls were made as follows: active = growth percent below 10; inactive = the rest.
The categories you may choose from are yes (1) (active), no (0) (inactive)

Take a look at these entries with their results.
# compound, assigned.class
records = [
    ("COc1cc(/C=C/c2cc(/C=C/c3ccc(O)c(OC)c3)n(C(=O)Nc3ccc(C)cc3)n2)ccc1O", "yes (1)"),
    ("CCCCCCCCCCCCNC(=O)[C@H]1CSC(c2cc3ccccc3s2)N1 (some centres not stated)", "yes (1)"),
]

Test call for this compound, please: Cc1ccc(-c2ccc(/C=C(\C#N)c3nc(-c4ccco4)cs3)o2)cc1
yes (1)

Okay, and C/C(=N\N=C(/C)c1cccc([N+](=O)[O-])c1)c1cccc([N+](=O)[O-])c1 ?
no (0)

Okay, and Oc1ccc(CCCCCCc2ccc(O)cc2)cc1 ?
no (0)

Okay, and N=C(N)/N=C(\CCc1nc2ccccc2[nH]1)c1nc2ccccc2[nH]1 ?
no (0)

###

Property: growth; scope: individual compounds
Tested on: SF-539 CNS
Test: NCI-60 one-dose screen, 48 h (100 = growth as untreated, 0 = no growth, -100 = all killed)
Settings: 10 µM
The panel holds about 83,000 compounds, 20% with a hit somewhere; the sample as a whole holds those more often.
Expressed in %, but write only the number.

Here is how some compounds turned out for growth.
# compound, growth (%)
measured = [
    ("O=C(Nc1ccc(OCC(=O)c2ccc(Cl)cc2)cc1)Nc1ccc(Cl)c(C(F)(F)F)c1", 47.3),
    ("COc1cccc(C(=O)CSc2nc(-c3ccc(OCc4ccccc4)c(OC)c3)c(C#N)c(=O)[nH]2)c1", 94.2),
    ("CC1(C)CC(=O)C2=C(C1)N(Cc1ccc(C(=O)O)cc1)C1=C(C(=O)CC(C)(C)C1)C2c1ccc(Cl)cc1", 110),
    ("Cc1ccc(-c2nc(C#N)c(S(=O)(=O)N3CCN(S(C)(=O)=O)CC3)o2)cc1", 40.3),
]

Which growth reading was recorded for the compound Cc1ccc2c(c1)C(=O)/C(=C/c1ccc([N+](=O)[O-])cc1)S2 ?
96.6

Okay, and COc1ccc(C(=O)COc2ccc(NC(=O)Nc3ccc(Cl)c(C(F)(F)F)c3)cc2)cc1 ?
33.7

Okay, and C#C[C@]1(O)CC[C@H]2[C@@H]3CC=C4c5sc(Nc6cc(C)cc(C)n6)nc5CC[C@]4(C)[C@H]3CC[C@@]21C ?
-66

Okay, and CCOC(=O)C1=C(N)N(c2ccc(C)cc2)C2=C(C(=O)CC(C)(C)C2)C1c1ccccc1Br (stereo not drawn) ?
104

###

System: MDA-MB-468 breast
Experiment: NCI-60 one-dose screen, 48 h (100 = growth as untreated, 0 = no growth, -100 = all killed)
Conditions: 10 µM unless noted
Compounds without any hit were thinned out: in the full panel of roughly 83,000, 20% have a hit.
Would you please tag the item Y when its growth is 10% or above, and N when it is below?

Take a look at these entries with their results.
# compound, assigned.class
data = [
    ("N#Cc1ncc(-c2cc(F)ccc2F)c(NC2CCCCCC2)n1", "Y"),
    ("CCN1C(=O)N(CC)C2Nn3c(s/c(=C\\c4ccc(OC)cc4)c3=O)=NC21 (stereo unspecified)", "Y"),
    ("CCNCCNc1cc(-c2cccc(C(F)(F)F)c2)c(C#N)c2nc3ccccc3n12", "N"),
    ("COc1ccc(-c2noc(N)c2-c2cc(OC)c3c(c2)OCO3)cc1", "Y"),
    ("CCCCNNC(=O)c1ccc(-c2cccc(F)c2F)cc1", "N"),
]

Consider the additional compound presented here.
Exam item: decide whether the reported growth for O=C(CCC(C(=O)c1ccccc1)c1ccccc1)c1ccccc1 (stereo unspecified) is at least 10%.
Y

###

System: CAKI-1 renal
Test: NCI-60 one-dose screen, 48 h (100 = growth as untreated, 0 = no growth, -100 = all killed)
Conditions: 10 µM
Compounds without any hit were thinned out: in the full panel of roughly 83,000, 20% have a hit.
reported.endpoint: growth (%)
Expressed in %, but write only the number.

Here is how some compounds turned out for growth.
# compound, growth, %
measured = [
    ("COc1ccc(C(=O)COc2ccc(NC(=O)Nc3ccc(Cl)c(C(F)(F)F)c3)cc2)cc1", 27.2),
    ("COc1ccc2[nH]cc(-c3nc(N)nnc3-c3cn(C)c4ncc(Br)cc34)c2c1", -0.341),
    ("Cc1ccc2sc3c(c2c1)Oc1nc[nH]c(=O)c1C3c1cccc(F)c1 (centres undefined)", 83.2),
]

API: value(readout=growth, system=CAKI-1 renal) for record COc1ccc(-n2c(SCC(=O)NNS(=O)(=O)c3ccccc3)nc3ccc(Cl)cc3c2=O)cc1
80.4
